Tested on: Escherichia coli
Experiment: microbe, parasite or virus in culture
Type: functional
Conditions: MTCC 443
Description: Antibacterial activity against Escherichia coli MTCC 443 by broth dilution method
propertyName: MIC (µg/mL)
Supply the numeric figure in µg/mL, leaving out any unit text.

Given the entry N#Cc1c(-c2ccc(F)cc2)c(C#N)c(=O)n(/N=C/c2cn(-c3ccccc3)nc2-c2ccccc2)c1N , report its measured MIC.
12.5

N#Cc1c(-c2ccccc2)c(C#N)c(=O)n(/N=C/c2cn(-c3ccccc3)nc2-c2ccccc2)c1N , same question.
250

Similarly, N#Cc1c(-c2cccc(Br)c2)c(C#N)c(=O)n(/N=C/c2cn(-c3ccccc3)nc2-c2ccccc2)c1N ?
100

Next entry: N#Cc1c(-c2ccccc2F)c(C#N)c(=O)n(/N=C/c2cn(-c3ccccc3)nc2-c2ccccc2)c1N
250

For N#Cc1c(-c2ccccc2Cl)c(C#N)c(=O)n(/N=C/c2cn(-c3ccccc3)nc2-c2ccccc2)c1N then?
100

---

Test system: Streptococcus pyogenes
Assay: microbe, parasite or virus in culture
Type: functional
Conditions: MTCC 442
Description: Antibacterial activity against Streptococcus pyogenes MTCC 442 by broth dilution method
propertyName: MIC (µg/mL)
Quick reminder: number only, in µg/mL, skip the unit.

Fill in the blank: the reported MIC of N#Cc1c(-c2ccc(Br)cc2)c(C#N)c(=O)n(/N=C/c2cn(-c3ccccc3)nc2-c2ccccc2)c1N is ____.
100

// repeat for N#Cc1c(-c2cccc(Cl)c2)c(C#N)c(=O)n(/N=C/c2cn(-c3ccccc3)nc2-c2ccccc2)c1N and report
100

Same for N#Cc1c(-c2ccccc2Cl)c(C#N)c(=O)n(/N=C/c2cn(-c3ccccc3)nc2-c2ccccc2)c1N
100
